Parameter residual activity: see the listing below.
biological target: Serine/threonine-protein kinase MRCK beta (Homo sapiens); settings: at 1 µM

{"Chemical string": "O=C1c2ccccc2-c2nc3nnnn3nc21", "residual activity / %": 116}
{"Chemical string": "COc1ccc2c(c[n+](C)c3c4cc5c(cc4ccc23)OCO5)c1OC", "residual activity / %": 90}
{"Chemical string": "CC(C)(C)c1cc(C=C(C#N)C#N)cc(Br)c1O", "residual activity / %": 115}

---

Biological target: Tyrosine-protein kinase TXK (Homo sapiens) (UniProt P42681)
Sequence (whole entry): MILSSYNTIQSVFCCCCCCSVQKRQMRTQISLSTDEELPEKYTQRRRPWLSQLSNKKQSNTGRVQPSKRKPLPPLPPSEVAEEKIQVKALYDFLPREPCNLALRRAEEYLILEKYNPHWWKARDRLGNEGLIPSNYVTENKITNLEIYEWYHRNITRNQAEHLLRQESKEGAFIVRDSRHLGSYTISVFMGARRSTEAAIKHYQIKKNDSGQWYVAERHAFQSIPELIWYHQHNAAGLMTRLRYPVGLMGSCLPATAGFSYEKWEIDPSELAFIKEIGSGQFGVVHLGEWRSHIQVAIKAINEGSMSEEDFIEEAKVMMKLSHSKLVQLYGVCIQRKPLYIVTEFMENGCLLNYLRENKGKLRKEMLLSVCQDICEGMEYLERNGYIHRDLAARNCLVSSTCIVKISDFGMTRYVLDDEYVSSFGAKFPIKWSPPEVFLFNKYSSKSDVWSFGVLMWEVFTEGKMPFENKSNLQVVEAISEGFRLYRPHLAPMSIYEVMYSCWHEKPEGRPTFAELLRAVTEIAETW
Conditions: at 10 µM
Kindly apply the following: T if residual activity is less than 80%, F in every other case.

{"Chemical string": "COc1cc2ncnc(Nc3ccc(OCc4ccccc4)cc3)c2cc1OC", "Assay system": "Tyrosine-protein kinase TXK (Homo sapiens) (UniProt P42681)", "Category": "T"}
{"Chemical string": "O=c1[nH]c2ccccc2n1C1CCN(Cc2ccc(-c3nc4cc5[nH]cnc5cc4nc3-c3ccccc3)cc2)CC1", "Assay system": "Tyrosine-protein kinase TXK (Homo sapiens) (UniProt P42681)", "Category": "F"}
{"Chemical string": "CCn1cnc2c(Nc3cccc(Cl)c3)nc(N[C@@H]3CCCC[C@@H]3N)nc21", "Assay system": "Tyrosine-protein kinase TXK (Homo sapiens) (UniProt P42681)", "Category": "T"}
{"Chemical string": "c1cc(-c2cnn3cc(-c4ccc(OCCN5CCCCC5)cc4)cnc23)ccn1", "Assay system": "Tyrosine-protein kinase TXK (Homo sapiens) (UniProt P42681)", "Category": "T"}
